Target: EGFR L858R/T790M (Homo sapiens, UniProt P00533, L858R/T790M)
Sequence (P00533 25-1210 T790M/L858R): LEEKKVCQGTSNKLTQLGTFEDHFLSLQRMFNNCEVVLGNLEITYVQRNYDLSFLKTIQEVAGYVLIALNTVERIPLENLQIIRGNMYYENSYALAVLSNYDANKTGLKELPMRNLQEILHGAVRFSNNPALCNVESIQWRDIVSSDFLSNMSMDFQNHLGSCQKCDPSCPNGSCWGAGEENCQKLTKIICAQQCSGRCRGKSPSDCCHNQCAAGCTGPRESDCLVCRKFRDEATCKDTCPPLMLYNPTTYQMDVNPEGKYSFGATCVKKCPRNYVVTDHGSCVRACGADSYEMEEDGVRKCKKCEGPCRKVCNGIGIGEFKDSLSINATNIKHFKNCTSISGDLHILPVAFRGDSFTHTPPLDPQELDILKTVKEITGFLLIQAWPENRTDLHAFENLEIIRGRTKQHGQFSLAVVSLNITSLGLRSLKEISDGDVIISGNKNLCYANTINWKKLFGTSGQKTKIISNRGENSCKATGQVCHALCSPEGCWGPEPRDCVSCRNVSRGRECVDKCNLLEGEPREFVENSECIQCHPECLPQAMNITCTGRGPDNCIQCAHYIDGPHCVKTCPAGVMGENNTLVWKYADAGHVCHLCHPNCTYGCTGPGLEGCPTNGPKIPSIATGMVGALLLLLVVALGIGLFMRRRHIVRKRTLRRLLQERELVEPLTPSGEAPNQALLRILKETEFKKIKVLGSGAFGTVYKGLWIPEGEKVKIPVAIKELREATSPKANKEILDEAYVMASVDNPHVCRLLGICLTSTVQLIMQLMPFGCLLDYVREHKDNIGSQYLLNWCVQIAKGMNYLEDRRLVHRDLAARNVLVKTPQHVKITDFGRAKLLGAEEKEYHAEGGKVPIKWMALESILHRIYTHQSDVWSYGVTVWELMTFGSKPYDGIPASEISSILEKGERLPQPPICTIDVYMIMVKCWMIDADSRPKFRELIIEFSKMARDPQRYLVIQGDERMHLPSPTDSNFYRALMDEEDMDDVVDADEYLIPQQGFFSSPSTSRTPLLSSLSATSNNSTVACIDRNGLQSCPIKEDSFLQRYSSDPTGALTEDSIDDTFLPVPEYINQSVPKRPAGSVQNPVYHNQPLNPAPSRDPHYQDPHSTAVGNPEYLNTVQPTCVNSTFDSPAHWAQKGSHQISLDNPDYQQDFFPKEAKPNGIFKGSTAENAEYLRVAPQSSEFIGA
Test: EGFR biochemical assay (headed HTRF-based; method describes Z'-LYTE), L858R/T790M
Conditions: Table 4
readout_label: IC50

The following compounds have reported results that may help.
C=CC(=O)N1CCC(N2Cc3cnc(Nc4ccc(N5CCN(C)CC5)cc4)nc3N(C)C2=O)[C@@H](N)C1 (stereo in doubt) [Compound 149] :: > 1000 nM
C=CC(=O)N1CCC(N2Cc3cnc(Nc4ccc(N5CCN(C)CC5)cc4)nc3N(C)C2=O)c2cccc(C(F)(F)F)c21 (stereo not drawn) [Compound 143] :: > 1000 nM
C=CC(=O)N1CCC(n2c(=O)c3cnc(Nc4cnn(CCO)c4)nc3n(C)c2=O)c2ccccc21 (stereo not drawn) [Compound 122] :: > 100 nM
C=CC(=O)N1CC[C@H](N2Cc3cnc(Nc4cnn(CCO)c4)nc3N(C)C2=O)c2cccc(OC)c21 [Compound 118] :: > 100 nM
C=CC(=O)N1CC[C@@H](N2Cc3cnc(Nc4cnn(CCO)c4)nc3N(C)C2=O)c2cccc(OC)c21 (single isomer, unassigned) [Compound 117] :: > 100 nM

Would you be so kind as to report IC50 for each listed record?
1. C=CC(=O)N1CCC(N2Cc3cnc(Nc4ccc(N5CCN(C)CC5)cc4)nc3N(C)C2=O)c2cccc(C#N)c21 (stereo not drawn) [Compound 150]
2. C=CC(=O)N1CC[C@H](N2Cc3cnc(Nc4ccc(CS(=O)(=O)NC)cc4)nc3N(C)C2=O)c2cccc(C)c21 [Compound 145]
3. [2H]C1(N2Cc3cnc(Nc4ccc(OCCN5CCCC5)cc4)nc3N(C)C2=O)CCN(C(=O)C=C)c2ccccc21 (stereo not drawn) [Compound 128]
4. C=C(F)C(=O)N1CC[C@H](N2Cc3cnc(Nc4cnn(CCO)c4)nc3N(C)C2=O)c2cccc(OC)c21 (single isomer, unassigned) [Compound 120]

1: > 1000 nM; 2: > 1000 nM; 3: > 700 nM; 4: > 100 nM
